- Test system: HeLa (Human Cervix epithelioid carcinoma cell line)
- testProtocol: Anti-cancer screening, HeLa cell proliferation
- Type: cell-based
- studyConditions: concentration required to inhibit 90% of the cell proliferation, read-out: MIC
Each entry below lists one item and its recorded IC90 value.

compound: COC(=O)CC[C@@H](C)C1CCC2C3C([C@H](NC(C)C)C(=O)[C@@]21C)[C@@]1(C)CC[C@@H](OC(C)=O)C[C@H]1C[C@H]3OC(C)=O (some centres unmarked)
IC90: > 100 µg/mL
--
compound: CCCCCCc1cn([C@@H]2C(=O)[C@@]3(C)C(CCC3[C@H](C)CCC(=O)OC)C3C2[C@@]2(C)CC[C@@H](OC(C)=O)C[C@H]2C[C@H]3OC(C)=O)nn1 (some centres unmarked)
IC90: > 100 µg/mL
--
compound: COC(=O)CC[C@@H](C)C1CCC2C3C([C@H](NC(=O)C4CCCN4)C(=O)[C@@]21C)[C@@]1(C)CC[C@@H](OC(C)=O)C[C@H]1C[C@H]3OC(C)=O (some centres unmarked)
IC90: > 100 µg/mL
--
compound: COC(=O)CC[C@@H](C)C1CCC2C3C([C@H](n4cc(-c5ccccc5)nn4)C(=O)[C@@]21C)[C@@]1(C)CC[C@@H](OC(C)=O)C[C@H]1C[C@H]3OC(C)=O (some centres unmarked)
IC90: 99.1 µg/mL
--
compound: COC(=O)CC[C@@H](C)C1CCC2C3C([C@H](n4nnc5ccccc54)C(=O)[C@@]21C)[C@@]1(C)CC[C@@H](OC(C)=O)C[C@H]1C[C@H]3OC(C)=O (some centres unmarked)
IC90: > 100 µg/mL
--
compound: COC(=O)CC[C@@H](C)C1CCC2C3C([C@H](n4cc(-c5ccccn5)nn4)C(=O)[C@@]21C)[C@@]1(C)CC[C@@H](OC(C)=O)C[C@H]1C[C@H]3OC(C)=O (some centres unmarked)
IC90: 85.9 µg/mL
--
compound: COC(=O)CC[C@@H](C)C1CCC2C3C([C@H](n4cc(-c5ccc(F)cc5)nn4)C(=O)[C@@]21C)[C@@]1(C)CC[C@@H](OC(C)=O)C[C@H]1C[C@H]3OC(C)=O (some centres unmarked)
IC90: > 100 µg/mL
--
compound: CCOC(=O)N[C@@H]1C(=O)[C@@]2(C)C(CCC2[C@H](C)CCC(=O)OC)C2C1[C@@]1(C)CC[C@@H](OC(C)=O)C[C@H]1C[C@H]2OC(C)=O (some centres unmarked)
IC90: > 100 µg/mL
--
compound: COC(=O)CC[C@@H](C)C1CCC2C3C([C@H](NC(=O)C(CO)NC(=O)OC(C)(C)C)C(=O)[C@@]21C)[C@@]1(C)CC[C@@H](OC(C)=O)C[C@H]1C[C@H]3OC(C)=O (some centres unmarked)
IC90: > 100 µg/mL
--
compound: CC(=O)O[C@H]1C(=O)[C@@]2(C)[C@H]([C@H](OC(=O)c3ccccc3)[C@]3(O)C[C@H](OC(=O)[C@H](O)[C@@H](NC(=O)c4ccccc4)c4ccccc4)C(C)=C1C3(C)C)[C@]1(OC(C)=O)CO[C@@H]1C[C@@H]2O [Paclitaxel, reference compound]
IC90: 0.075 µg/mL
--
compound: COC(=O)CC[C@@H](C)C1CCC2C3C([C@H](NC(=O)C4CCCN4C(=O)OC(C)(C)C)C(=O)[C@@]21C)[C@@]1(C)CC[C@@H](OC(C)=O)C[C@H]1C[C@H]3OC(C)=O (some centres unmarked)
IC90: > 100 µg/mL
